Test: chemical genetic growth profiling, strain panel (AID 1159580);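 note: tested at 20 µM; growth read once vehicle control cultures reached saturation at 30 °C; 1 = growth at the plate median or of vehicle wells; lower values mean less growth of the strain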
Settings: S. cerevisiae deletion strains, growth OD, locus YGL167C, strain pmr1, stronger effect = lower value
Screen size: about 5,500 compounds; about 2,000 (36%) were called active. Inconclusive results (about 18%) are left out. The list shows a part of the results.
QUANTITY_KIND: normalized growth

INSERT INTO assay_data (molecule, quantity_kind, value) VALUES
  ('CC(=O)S[C@@H]1CC2=CC(=O)CC[C@]2(C)[C@H]2CC[C@@]3(C)[C@@H](CC[C@@]34CCC(=O)O4)C12 (stereo not given in full)', 'normalized growth', '1.03 (inactive)'),
  ('C[C@]12CCC(=O)C=C1C=CC1C2CC[C@@]2(C)C1CC[C@@]2(O)CCC(=O)O (stereo not given in full)', 'normalized growth', '1.02 (inactive)'),
  ('COc1ccc(-c2coc3cc(O)ccc3c2=O)cc1', 'normalized growth', '0.997 (inactive)'),
  ('COc1ccc(-c2coc3cc(O)ccc3c2=O)c(O)c1O', 'normalized growth', '0.979 (inactive)'),
  ('COc1ccc(-c2coc3cc(O)ccc3c2=O)c(OC)c1', 'normalized growth', '1.01 (inactive)');

###

Test: chemical genetic growth profiling, strain panel (AID 1159580);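 note: tested at 20 µM; growth read once vehicle control cultures reached saturation at 30 °C; 1 = growth at the plate median or of vehicle wells; lower values mean less growth of the strain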
Conditions: S. cerevisiae deletion strains, growth OD, locus YCL029C, strain bik1, stronger effect = lower value
Screen size: about 5,500 compounds; about 2,000 (36%) were called active. Roughly 18% stayed inconclusive and do not appear here. Some of the results follow.
QUANTITY_KIND: normalized growth

INSERT INTO assay_data (compound, quantity_kind, value) VALUES
  ('CCC(C)C(=O)O[C@@H]1C[C@@]2(C)[C@H](c3ccoc3)OC(=O)CC23OC2(C)OC34[C@H](OC(=O)C(C)C)[C@@]3(O)[C@@H](OC(=O)C5(C)OC5C)[C@@]5(C)C[C@]3(O)[C@@](C)([C@H]5CC(=O)OC)C14O2 (stereo partly specified)', 'normalized growth', 0.994),
  ('COc1cc2c(cc1OC)C(=O)c1ccc(OC)c(OC)c1OCC(=O)C2', 'normalized growth', 1.01),
  ('CCn1cc(C(=O)O)c(=O)c2cc(F)c(N3CCNC(C)C3)c(F)c21 (stereo unspecified)', 'normalized growth', 0.979),
  ('COC(=O)/C=C/C(C)=C/C=C/C(C)=C/C=C/C=C(C)/C=C/C=C(C)/C=C/C(=O)O', 'normalized growth', 1.01),
  ('O=C(O)c1cc2cc(F)ccc2[nH]1', 'normalized growth', 1.02),
  ('Oc1cc(O)c2c(c1)O[C@H](c1ccc(O)c(O)c1)[C@H](O)C2', 'normalized growth', 0.976),
  ('CC1COc2c(N3CCN(C)CC3)c(F)cc3c(=O)c(C(=O)O)cn1c23 (stereo unspecified)', 'normalized growth', 1.01),
  ('Nc1nc(=S)c2[nH]cnc2[nH]1', 'normalized growth', 1.01),
  ('Oc1cc(O)c2c(c1)OC(c1cc(O)c(O)c(O)c1)C(O)C2c1c(O)cc(O)c2c1OC(c1cc(O)c(O)c(O)c1)C(O)C2c1c(O)cc(O)c2c1OC(c1cc(O)c(O)c(O)c1)C(O)C2 (stereo unspecified)', 'normalized growth', 0.999),
  ('C[C@]12CCC(=O)C=C1C=CC1C2CC[C@@]2(C)C1CC[C@@]21CCC(=O)O1 (stereo partly specified)', 'normalized growth', 0.949),
  ('C=CCc1ccc(O)c(OC)c1', 'normalized growth', 0.949),
  ('Cc1[nH]c2ccccc2c1CN(C)C', 'normalized growth', 0.986),
  ('CN1C2CCC1CC(OC(c1ccccc1)c1ccccc1)C2 (stereo unspecified)', 'normalized growth', 0.98),
  ('C=C[C@@](C)(O)CCC1C(=C)C[C@H](O)C2C(C)(C)CCCC12C (stereo partly specified)', 'normalized growth', 1.02),
  ('COc1ccc([C@H]2Oc3c(I)c(OC)cc(OC)c3C[C@@H]2O)cc1OC', 'normalized growth', 1.03),
  ('Clc1ccc(C(OCCN2CCCCC2)c2ccccc2)cc1 (stereo unspecified)', 'normalized growth', 1.01),
  ('COC(=O)CC1C2(C)CC34OC5(C)OC6(C7/C(=C(/O)C(C)C)C(=O)OC(c8ccoc8)C7(C)C(OC(=O)C(C)C)C(OC)C6(O5)C13C)C(OC)C4(OC)C2OC(C)=O (stereo unspecified)', 'normalized growth', 0.99),
  ('CCCCNC(=O)NS(=O)(=O)c1ccc(C)cc1', 'normalized growth', 0.979),
  ('Cc1ccc(S(=O)(=O)NC(=O)NN2CCCCCC2)cc1', 'normalized growth', 0.99),
  ('O=C1c2ccc(O)cc2O[C@H](c2cc(O)c(O)c(O)c2)[C@H]1O', 'normalized growth', 1.02),
  ('CN1CC(CO)=C[C@@H]2c3cccc4[nH]cc(c34)C[C@H]21', 'normalized growth', 1.01),
  ('C=C1C2CC[C@@]3(C)[C@H](c4ccoc4)OC(=O)C[C@]13O[C@H]1CC(=O)C(C)(C)[C@H](C(OC(C)=O)C(=O)OC)[C@@]21C (stereo partly specified)', 'normalized growth', 1),
  ('C=CCc1ccc(OC(=O)c2ccccc2)c(OC)c1', 'normalized growth', 0.973),
  ('CCCCCCC(C)OC(=O)COc1cc(Cl)c(Cl)cc1Cl (stereo unspecified)', 'normalized growth', 0.992),
  ('CCC(C)C(=O)OC1CC2(C)C(c3ccoc3)OC(=O)CC23OC2(C)OC34C(OC(=O)C(C)C)C3(O)C(OC(=O)C5(C)OC5C)C5(C)CC3(O)C(C)(C5C(=O)OC)C14O2 (stereo unspecified)', 'normalized growth', 1.04),
  ('OCC(O)CN1CCN(c2ccccc2)CC1 (stereo unspecified)', 'normalized growth', 0.978),
  ('CCC(C)C(=O)O[C@@H]1C[C@@]2(C)[C@H](c3ccoc3)OC(=O)CC23OC2(C)O[C@]14[C@]1(C)[C@@H](CC(=O)OC)C5(C)CC1(O)[C@](O)(C5OC(=O)C1(C)OC1C)[C@@H](OC(C)=O)[C@]34O2 (stereo partly specified)', 'normalized growth', 1.02),
  ('COc1ccc(C(=O)O)cc1OC', 'normalized growth', 0.992),
  ('C=C[C@@](C)(O)CCC1C(=C)CCC2[C@@](C)(CO)CCC[C@]12C (stereo partly specified)', 'normalized growth', 0.972),
  ('COc1ccc(C(=O)CC(=O)O)c2c1C=CC(C)(C)O2', 'normalized growth', 0.997),
  ('CN(C)CCOC(c1ccc(Cl)cc1)c1ccccn1 (stereo unspecified)', 'normalized growth', 0.999),
  ('NS(=O)(=O)c1cc2c(cc1Cl)NC=NS2(=O)=O', 'normalized growth', 0.997),
  ('COc1ccc2c(c1)OC/C(=C\c1ccc(OC)c(O)c1)C2=O', 'normalized growth', 0.772),
  ('Oc1cc(O)c2c(c1)O[C@H](c1ccc(O)c(O)c1)[C@@H](O)C2', 'normalized growth', 0.972),
  ('CC1CCc2cc(F)cc3c(=O)c(C(=O)O)cn1c23 (stereo unspecified)', 'normalized growth', 0.925),
  ('c1ccc2c(c1)CCCC2C1=NCCN1 (stereo unspecified)', 'normalized growth', 0.995);

###

Test: chemical genetic growth profiling, strain panel (AID 1159580);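 note: tested at 20 µM; growth read once vehicle control cultures reached saturation at 30 °C; 1 = growth at the plate median or of vehicle wells; lower values mean less growth of the strain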
Settings: S. cerevisiae deletion strains, growth OD, locus YGR078C, strain PAC10
Hit rate of the full screen: of about 5,500 compounds, about 2,000 (36%) were called active. About 18% were inconclusive and are not listed. Rule as the data show it: active = normalized growth mostly below about 0.91 (no sharp cut-off); inconclusive = no clear call, values can overlap the other calls; inactive = mostly above about 0.92. The list shows a part of the results.
Labels: 1.0 for active, 0.0 for inactive

INSERT INTO results (compound, class_name) VALUES
  ('CCN(CC)CCOC(=O)c1cc(Cl)c(N)cc1OC', 0.0),
  ('COc1cc2c(cc1OC)C(=O)c1ccc(OC)c(OC)c1OCC(=O)C2', 0.0),
  ('CC[C@@]1(O)C[C@H](O[C@H]2C[C@H](N(C)C)[C@H](O)[C@H](C)O2)c2c(cc3c(c2O)C(=O)c2c(O)cccc2C3=O)[C@H]1C(=O)OC', 0.0),
  ('c1ccc(OCCOc2ccccn2)nc1', 0.0),
  ('Cc1ccc(-c2csc(CC#N)n2)cc1C', 0.0),
  ('NS(=O)(=O)c1cc2c(cc1Cl)NC=NS2(=O)=O', 0.0),
  ('C[N+](C)(C)CCC(=O)c1cccc2ccccc12', 0.0),
  ('CC1CCc2cc(F)cc3c(=O)c(C(=O)O)cn1c23 (stereo not given)', 0.0),
  ('NC(Cc1ccc(N(CCCl)CCCl)cc1)C(=O)O (stereo not given)', 0.0),
  ('CC12NC(Cc3ccccc31)c1ccccc12 (stereo not given)', 0.0),
  ('CCCCCCC(C)OC(=O)COc1cc(Cl)c(Cl)cc1Cl (stereo not given)', 0.0),
  ('O=C1c2ccccc2C(=O)C1(c1ccccc1)[N+](=O)[O-]', 1.0),
  ('O=C1NC(=O)C(c2ccccc2)(c2ccccc2)N1', 0.0),
  ('CC1CC2C3CCC4=CC(=O)C=CC4(C)C3(F)C(O)CC2(C)C1(O)C(=O)CO (stereo not given)', 0.0),
  ('O=C(Oc1cc(O)cc2c1C[C@@H](OC(=O)c1cc(O)c(O)c(O)c1)[C@@H](c1cc(O)c(O)c(O)c1)O2)c1cc(O)c(O)c(O)c1', 1.0),
  ('CN(C)C=Nc1ncccc1OCc1ccc(Cl)c(Cl)c1', 0.0),
  ('Clc1ccc(C(c2ccc(Cl)cc2)C(Cl)(Cl)Cl)cc1', 0.0),
  ('Cc1ccc(C)n1-c1ccc(C(=O)NNS(=O)(=O)c2ccc(Cl)cc2)cc1', 0.0),
  ('CCOC(=O)Cc1csc(N=CNO)n1', 0.0),
  ('CC(=O)Oc1cc(OC(C)=O)c2c(c1)O[C@H](c1ccc(OC(C)=O)c(OC(C)=O)c1)[C@H](OC(C)=O)C2', 0.0),
  ('CNC(=O)O/N=C(\C)SC', 0.0),
  ('Cc1ccccc1C(OCCN(C)C)c1ccccc1 (stereo not given)', 0.0),
  ('Clc1ccc(C(OCCN2CCCCC2)c2ccccc2)cc1 (stereo not given)', 0.0),
  ('O=C(O[C@@H]1Cc2c(O)cc(O)cc2O[C@@H]1c1cc(O)c(O)c(O)c1)c1cc(O)c(O)c(O)c1', 0.0),
  ('CSc1c(-c2ccccc2)c(N)nn1S(=O)(=O)c1ccccc1', 0.0),
  ('Nc1nc(=S)c2[nH]cnc2[nH]1', 0.0),
  ('CNCC[C@@H](Oc1ccc(C(F)(F)F)cc1)c1ccccc1', 0.0),
  ('C[C@H]1COc2c(N3CCN(C)CC3)c(F)cc3c(=O)c(C(=O)O)cn1c23', 0.0),
  ('C/C(=N/O)c1sc2nc(C(F)(F)F)nn2c1C', 0.0),
  ('COc1cc(OC)c2c(c1)O[C@H](c1cc(OC)c(OC)c(OC)c1)[C@H](OC(=O)c1cc(OC)c(OC)c(OC)c1)C2', 0.0),
  ('S=C1NCN(CCN2CCCC2)CN1', 0.0),
  ('CNCC[C@H](Oc1ccc(C(F)(F)F)cc1)c1ccccc1', 0.0),
  ('NC(=O)c1ccc[n+]([C@@H]2O[C@H](COP(=O)([O-])OP(=O)(O)OC[C@H]3O[C@@H](n4cnc5c(N)ncnc54)[C@H](OP(=O)(O)O)[C@@H]3O)[C@@H](O)[C@H]2O)c1', 0.0),
  ('COC(=O)c1ccc(Cl)cc1NS(=O)(=O)c1ccc(OC)c(OC)c1', 0.0),
  ('COc1c(N2CCNC(C)C2)c(F)cc2c(=O)c(C(=O)O)cn(C3CC3)c12 (stereo not given)', 0.0),
  ('CN1CC[C@@]2(C)c3cc(O)ccc3N(C)C12 (stereo not given in full)', 0.0),
  ('Cc1ccc(C)n1-c1ccc(C(=O)NNC(=O)c2ccc3nccnc3c2)cc1', 0.0),
  ('CN1CCC(OC(c2ccccc2)c2ccccc2)CC1', 0.0),
  ('CCc1nnc(N=CNO)s1', 0.0),
  ('Cn1c2c(c(=O)n(C)c1=O)CN(CCCCCCO)CN2', 0.0),
  ('CC(=O)Oc1cc(OC(C)=O)c2c(c1)O[C@H](c1ccc(OC(C)=O)c(OC(C)=O)c1)[C@@H](OC(C)=O)C2', 0.0),
  ('CN(C)CCOC(c1ccc(Cl)cc1)c1ccccn1 (stereo not given)', 0.0),
  ('Nc1ncnc2c1ncn2C1OC2COP(O)(=S)O[C@@H]2[C@@H]1O (stereo not given in full)', 0.0),
  ('COc1ccc(C(CN(C)C)C2(O)CCCCC2)cc1 (stereo not given)', 0.0),
  ('NCCC(=O)NCCc1cnc[nH]1', 0.0);
